Sourced from the RNAGym collection of RNA variant scans (doi:10.1093/molbev/msab373)

B1: Azoarcus group I ribozyme (parent)
chain: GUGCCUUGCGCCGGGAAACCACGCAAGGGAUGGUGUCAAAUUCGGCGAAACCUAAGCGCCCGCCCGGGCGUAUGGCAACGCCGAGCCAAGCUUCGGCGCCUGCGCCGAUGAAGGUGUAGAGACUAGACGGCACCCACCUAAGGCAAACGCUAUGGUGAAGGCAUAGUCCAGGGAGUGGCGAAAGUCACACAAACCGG

Variants of: B1
PROTOCOL DETAILS: reverse-splicing fitness (ratio to wild type); higher = more active; in vitro selection; Mg2+ level not given
The variants listed here are annotated with their reverse-splicing fitness.
ATTRIBUTE MEASURED: reverse-splicing fitness

• A111C A145U C150G C169G U176A = 0.00777
• A111U A145G C150G C169U = 0.0181
• A111C A120G A145U C150U C169U U176G = 0.00595
• C82G A145C C150U C169G U176G = 0.00533
• A111G A145G C150A C169G U176G = 0.00564
• C82U A145C C169U U176A = 0.0118
• C82G A120U A145C C150U C169A U176G = 0.00172
• A145U C150A C169U U176G = 0.00699
• A111G A120U A145C C169A U176A = 0.00226
• C82G A111C A120C A145G C150U = 0.0408
• C82A A111C A120C C150G C169A U176C = 0.0121
• C82G A111C A120G A145U C150A C169A U176A = 0.0128
• C82G A111G A120C A145G C169U U176C = 0.0147
• C82G A120G A145G C169G U176C = 0.0345
• C82G A111G A120U C150G C169A U176C = 0.00831
• C82G A111C A120U A145G C169G U176C = 0.00363
• C82G A111U A120C A145G C150U C169U = 0.0134
• C82G A111C A120G A145C C150G C169U U176G = 0.00513
• A120C A145U C150G C169A U176C = 0.00821
• C82U A111G A120C A145C C169A U176G = 0.003
• A111C A120U A145G C150A C169G U176G = 0.00255
• C82A A111U C150G C169G U176C = 0.00482
• C82U A120C A145C C150A C169U = 0.00777
• C82U A111U A120G C150G C169A U176C = 0.00855
• C82U A120G A145C C150U C169U = 0.00884
• A111U C150U C169A U176G = 0.00669
• C82U A120G A145G C150G C169G U176G = 0.00523
• A111C A120C A145U C150U C169A U176G = 0.00715
• A111G A120U C169G U176G = 0.00198
• C82A A111C A120G C169U U176G = 0.00559
• C82A A111U A120G A145C C150U C169G U176G = 0.00608
• C82A A111C A120C A145C C150G C169G U176C = 0.0101
• C82A A111C A120G A145C C150G C169G U176C = 0.00766
• A111U A145U C150G C169G U176G = 0.00534
• C82U A111G A120C A145G U176G = 0.00519
• C82A A111U A145U C150A C169U U176A = 0.0147
• C82U A120C A145G C150G C169A U176G = 0.00772
• A111U A145U C150U C169U U176A = 0.022
• C82G A120C A145G C150U C169U = 0.0243
• A111U A145U C150A C169U U176C = 0.0162
• C82A A111C A145U C150U C169A U176G = 0.00861
• C82A A111G A120U C150G C169G U176G = 0.00237
• A111U A145C C169A U176C = 0.00885
• C82U A111U A120G C150A C169U = 0.00823
• C82G A111G A120C A145G C150G = 0.0123
• C82A A111C A120C A145G C150G C169U U176G = 0.00808
• C82G A111G A120G A145C C150G C169G = 0.00841
• C82G A145U C150U = 0.321
• C82U A111G A120C A145U C150U U176G = 0.00565
• A111G A120G A145G C169A = 0.188
• A111U A120U C169A U176C = 0.00373
• C82A A145C C150U C169U U176C = 0.00806
• C82A A120C A145C C150A C169A = 0.00995
• C82G A120U A145C C150G C169A U176A = 0.00219
• C82G A111C A120G A145U C150U C169U U176G = 0.00531
• A111C A120C A145G C150U C169U U176G = 0.00486
• C82A A111G A120U A145U C169U U176C = 0.00256
• C82U A111U A120U A145U C150G U176A = 0.00312
• C82G A111G A145C C150A C169U U176A = 0.0123
• C82A A111G A120C A145U C150U C169U = 0.0117
• C82G A120U A145C C169U U176C = 0.00223
